The reported measurements were obtained from ChEMBL document CHEMBL3739352.

Experiment notes: in vitro
Condition details: human, HepG2 cells
Description: Hepatotoxicity against human HepG2 cells assessed as cell viability at 10 uM after 24 hrs by trypan blue exclusion assay (Rvb = 97 to 99%)

>  <Molecule>
CCC(O)CNC(=O)/C=C/c1ccccc1 (racemic)

>  <Unit string>
%

>  <viability at 24 h, 10 µM>
98

$$$$
>  <Molecule>
CC(C)C(CO)NC(=O)/C=C/c1ccccc1 (racemic)

>  <Unit string>
%

>  <viability at 24 h, 10 µM>
98

$$$$
>  <Molecule>
CC(O)CNC(=O)/C=C/c1ccccc1 (racemic)

>  <Unit string>
%

>  <viability at 24 h, 10 µM>
99

$$$$
>  <Molecule>
COc1cccc2c1C(=O)c1c(O)c3c(c(O)c1C2=O)C[C@@](O)(C(=O)CO)C[C@@H]3O[C@H]1C[C@H](N)[C@H](O)[C@H](C)O1 [DOXORUBICIN]

>  <Unit string>
%

>  <viability at 24 h, 10 µM>
91

$$$$
>  <Molecule>
CC(CO)NC(=O)/C=C/c1ccccc1 (racemic)

>  <Unit string>
%

>  <viability at 24 h, 10 µM>
98

$$$$

----------
Test system: Salmonella typhimurium
Experiment notes: Mutagenicity in Salmonella typhimurium TA98 assessed as number of revertants at 4 ug/plate by Ames test (reference value: 23 +/- 3)
Type: toxicity, organism-based
Condition details: salmonella enterica subsp. enterica serovar typhimurium

>  <Compound>
O=C(/C=C/c1ccccc1)N1CCC(O)CC1

>  <Activity>
22

$$$$
>  <Compound>
O=C(/C=C/c1ccccc1)N[C@H]1CCCC[C@@H]1O (racemic)

>  <Activity>
22

$$$$
>  <Compound>
CCC(CO)NC(=O)/C=C/c1ccccc1 (racemic)

>  <Activity>
21

$$$$
>  <Compound>
CC(C)C(CO)NC(=O)/C=C/c1ccccc1 (racemic)

>  <Activity>
20

$$$$
>  <Compound>
CC(CO)NC(=O)/C=C/c1ccccc1 (racemic)

>  <Activity>
20

$$$$
>  <Compound>
CCC(O)CNC(=O)/C=C/c1ccccc1 (racemic)

>  <Activity>
19

$$$$
>  <Compound>
CC(O)CNC(=O)/C=C/c1ccccc1 (racemic)

>  <Activity>
26

$$$$

----------
Property: Activity_index; scope: individual molecules
Tested on: Salmonella typhimurium
Experiment notes: Mutagenicity in Salmonella typhimurium TA98 assessed as mutagenic index at 100 ug/plate by Ames test
Assay type: toxicity, organism-based
Condition details: salmonella enterica subsp. enterica serovar typhimurium

>  <Molecule>
O=C(/C=C/c1ccccc1)N[C@H]1CCCC[C@@H]1O (racemic)

>  <System name>
Salmonella typhimurium

>  <Activity_index>
0.9

$$$$
>  <Molecule>
CCC(O)CNC(=O)/C=C/c1ccccc1 (racemic)

>  <System name>
Salmonella typhimurium

>  <Activity_index>
0.9

$$$$
>  <Molecule>
CC(O)CNC(=O)/C=C/c1ccccc1 (racemic)

>  <System name>
Salmonella typhimurium

>  <Activity_index>
0.9

$$$$
>  <Molecule>
CC(CO)NC(=O)/C=C/c1ccccc1 (racemic)

>  <System name>
Salmonella typhimurium

>  <Activity_index>
0.9

$$$$
>  <Molecule>
CC(C)C(CO)NC(=O)/C=C/c1ccccc1 (racemic)

>  <System name>
Salmonella typhimurium

>  <Activity_index>
0.8

$$$$
>  <Molecule>
CCC(CO)NC(=O)/C=C/c1ccccc1 (racemic)

>  <System name>
Salmonella typhimurium

>  <Activity_index>
1

$$$$
>  <Molecule>
O=C(/C=C/c1ccccc1)N1CCC(O)CC1

>  <System name>
Salmonella typhimurium

>  <Activity_index>
0.7

$$$$

----------
Property: viability at 24 h, 100 µM; scope: individual compounds
Experiment notes: Hepatotoxicity against human HepG2 cells assessed as cell viability at 100 uM after 24 hrs by MTT assay relative to control

>  <Compound>
CCC(O)CNC(=O)/C=C/c1ccccc1 (racemic)

>  <Unit string>
%

>  <viability at 24 h, 100 µM>
85.9

$$$$
>  <Compound>
CC(CO)NC(=O)/C=C/c1ccccc1 (racemic)

>  <Unit string>
%

>  <viability at 24 h, 100 µM>
92.2

$$$$
>  <Compound>
CC(C)C(CO)NC(=O)/C=C/c1ccccc1 (racemic)

>  <Unit string>
%

>  <viability at 24 h, 100 µM>
82.2

$$$$
>  <Compound>
COc1cccc2c1C(=O)c1c(O)c3c(c(O)c1C2=O)C[C@@](O)(C(=O)CO)C[C@@H]3O[C@H]1C[C@H](N)[C@H](O)[C@H](C)O1

>  <Unit string>
%

>  <viability at 24 h, 100 µM>
44.9

$$$$
>  <Compound>
CC(O)CNC(=O)/C=C/c1ccccc1 (racemic)

>  <Unit string>
%

>  <viability at 24 h, 100 µM>
91.9

$$$$

----------
Property: Activity_index; scope: individual compounds
Test system: Salmonella typhimurium
Experiment notes: Mutagenicity in Salmonella typhimurium TA1535 assessed assessed as mutagenic index at 100 ug/plate by Ames test
Assay type: toxicity, organism-based
Condition details: salmonella enterica subsp. enterica serovar typhimurium

>  <Compound>
CC(C)C(CO)NC(=O)/C=C/c1ccccc1 (racemic)

>  <System name>
Salmonella typhimurium

>  <Activity_index>
0.6

$$$$
>  <Compound>
CC(O)CNC(=O)/C=C/c1ccccc1 (racemic)

>  <System name>
Salmonella typhimurium

>  <Activity_index>
1.2

$$$$
>  <Compound>
O=C(/C=C/c1ccccc1)N1CCC(O)CC1

>  <System name>
Salmonella typhimurium

>  <Activity_index>
0.9

$$$$
>  <Compound>
CC(CO)NC(=O)/C=C/c1ccccc1 (racemic)

>  <System name>
Salmonella typhimurium

>  <Activity_index>
0.5

$$$$
>  <Compound>
CCC(CO)NC(=O)/C=C/c1ccccc1 (racemic)

>  <System name>
Salmonella typhimurium

>  <Activity_index>
1.4

$$$$
>  <Compound>
O=C(/C=C/c1ccccc1)N[C@H]1CCCC[C@@H]1O (racemic)

>  <System name>
Salmonella typhimurium

>  <Activity_index>
0.6

$$$$
>  <Compound>
CCC(O)CNC(=O)/C=C/c1ccccc1 (racemic)

>  <System name>
Salmonella typhimurium

>  <Activity_index>
0.5

$$$$

----------
Property: Activity_index; scope: individual compounds
System: Salmonella typhimurium
Experiment notes: Mutagenicity in Salmonella typhimurium TA100 assessed as mutagenic index at 100 ug/plate by Ames test
Assay type: toxicity, organism-based
Condition details: salmonella enterica subsp. enterica serovar typhimurium

>  <Compound>
O=C(/C=C/c1ccccc1)N1CCC(O)CC1

>  <Activity_index>
1

$$$$
>  <Compound>
CC(O)CNC(=O)/C=C/c1ccccc1 (racemic)

>  <Activity_index>
0.9

$$$$
>  <Compound>
CC(C)C(CO)NC(=O)/C=C/c1ccccc1 (racemic)

>  <Activity_index>
1

$$$$
>  <Compound>
CCC(O)CNC(=O)/C=C/c1ccccc1 (racemic)

>  <Activity_index>
0.8

$$$$
>  <Compound>
CC(CO)NC(=O)/C=C/c1ccccc1 (racemic)

>  <Activity_index>
0.9

$$$$
>  <Compound>
O=C(/C=C/c1ccccc1)N[C@H]1CCCC[C@@H]1O (racemic)

>  <Activity_index>
0.9

$$$$
>  <Compound>
CCC(CO)NC(=O)/C=C/c1ccccc1 (racemic)

>  <Activity_index>
0.8

$$$$

----------
Experiment notes: in vitro
Condition details: human, HepG2 cells
Description: Hepatotoxicity against human HepG2 cells assessed as cell viability at 100 uM after 24 hrs by trypan blue exclusion assay (Rvb = 97 to 99%)

>  <Compound>
CC(O)CNC(=O)/C=C/c1ccccc1 (racemic)

>  <viability at 24 h, 100 µM (%)>
85

$$$$
>  <Compound>
CC(CO)NC(=O)/C=C/c1ccccc1 (racemic)

>  <viability at 24 h, 100 µM (%)>
89

$$$$
>  <Compound>
COc1cccc2c1C(=O)c1c(O)c3c(c(O)c1C2=O)C[C@@](O)(C(=O)CO)C[C@@H]3O[C@H]1C[C@H](N)[C@H](O)[C@H](C)O1

>  <viability at 24 h, 100 µM (%)>
48

$$$$
>  <Compound>
CC(C)C(CO)NC(=O)/C=C/c1ccccc1 (racemic)

>  <viability at 24 h, 100 µM (%)>
90

$$$$
>  <Compound>
CCC(O)CNC(=O)/C=C/c1ccccc1 (racemic)

>  <viability at 24 h, 100 µM (%)>
89

$$$$

----------
Test system: Salmonella typhimurium
Experiment notes: Mutagenicity in Salmonella typhimurium TA1535 assessed as assessed as mutagenic index at 4 ug/plate by Ames test
Assay type: toxicity, organism-based
Condition details: salmonella enterica subsp. enterica serovar typhimurium

>  <Compound>
CC(C)C(CO)NC(=O)/C=C/c1ccccc1 (racemic)

>  <Activity_index>
0.5

$$$$
>  <Compound>
O=C(/C=C/c1ccccc1)N[C@H]1CCCC[C@@H]1O (racemic)

>  <Activity_index>
0.5

$$$$
>  <Compound>
O=C(/C=C/c1ccccc1)N1CCC(O)CC1

>  <Activity_index>
0.5

$$$$
>  <Compound>
CC(CO)NC(=O)/C=C/c1ccccc1 (racemic)

>  <Activity_index>
1.5

$$$$
>  <Compound>
CCC(O)CNC(=O)/C=C/c1ccccc1 (racemic)

>  <Activity_index>
0.9

$$$$
>  <Compound>
CCC(CO)NC(=O)/C=C/c1ccccc1 (racemic)

>  <Activity_index>
1.1

$$$$
>  <Compound>
CC(O)CNC(=O)/C=C/c1ccccc1 (racemic)

>  <Activity_index>
1.2

$$$$
